Reference for the values: patent US9321760B2

Overview of recorded IC50 for various compounds
target: P70S6K (T412E mutant) (Homo sapiens (Human), UniProt P23443, T412E); assay: P70S6K enzyme assay; settings: 3 nM P70S6K T412E mutant, 24 μM ATP, 1 μM FITC-AHA-AKRRRLSSLRA-OH substrate peptide, 90 min at 25° C.
Sequence (P23443 whole entry T412E): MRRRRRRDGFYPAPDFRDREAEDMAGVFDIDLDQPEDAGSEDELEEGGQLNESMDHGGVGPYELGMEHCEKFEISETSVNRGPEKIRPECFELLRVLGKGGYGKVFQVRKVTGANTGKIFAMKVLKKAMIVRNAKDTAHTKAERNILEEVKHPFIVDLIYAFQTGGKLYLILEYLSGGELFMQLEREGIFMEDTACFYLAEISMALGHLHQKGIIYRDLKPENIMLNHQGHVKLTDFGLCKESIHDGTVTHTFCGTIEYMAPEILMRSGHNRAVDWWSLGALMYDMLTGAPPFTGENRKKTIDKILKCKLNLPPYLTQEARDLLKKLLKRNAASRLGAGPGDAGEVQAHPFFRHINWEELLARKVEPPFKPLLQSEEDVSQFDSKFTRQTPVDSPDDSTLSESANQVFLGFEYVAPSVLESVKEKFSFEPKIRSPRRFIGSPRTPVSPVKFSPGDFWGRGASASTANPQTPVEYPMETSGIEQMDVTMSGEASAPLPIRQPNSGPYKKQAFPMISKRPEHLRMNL
Observable: IC50 (nM)

> print(dat)
                                   compound  unit.label  bound.type  test.value
1  N#CC(c1ccc(Cl)c(Cl)c1)N1CCN(c2ncnc(N)c2-c2ccc(F)cc2)CC1 (stereo not shown)          nM           =         130
2  Cn1ccnc1C(c1ccccc1)N1CCN(c2ncnc(N)c2Br)CC1 (stereo not shown)          nM           >        1000
3  N#CC(c1ccc(F)c(Cl)c1)N1CCN(c2ncnc(N)c2-c2ccc(F)cc2)CC1 (stereo not shown)          nM           =         590
4  CCc1c(N)ncnc1N1CCN([C@H](CN)c2ccc(Cl)cc2)CC1          nM           =          13

====

biological target: P70S6K (T412E mutant) (Homo sapiens (Human), UniProt P23443, T412E); experiment: P70S6K enzyme assay; details: 3 nM P70S6K T412E mutant, 24 μM ATP, 1 μM FITC-AHA-AKRRRLSSLRA-OH substrate peptide, 90 min at 25° C.
Observable: IC50 (µM)

> print(dat)
                                   compound                             target.entity  unit.label  test.value
1  Nc1ncnc(N2CCC(C(OCCN3CCCC3)c3ccc(F)cc3)CC2)c1-c1ccc(F)cc1 (stereo not shown)  P70S6K (T412E mutant) (Homo sapiens (Human), UniProt P23443, T412E)          µM       0.011
2  COC[C@H](NC(=O)C1(N)CCN(c2ncnc(N)c2C(N)=O)CC1)c1ccc(Cl)cc1  P70S6K (T412E mutant) (Homo sapiens (Human), UniProt P23443, T412E)          µM           5
3  NC[C@H](c1ccc(C(F)(F)F)cc1)N1CCN(c2ncnc(N)c2-c2cn[nH]c2)CC1  P70S6K (T412E mutant) (Homo sapiens (Human), UniProt P23443, T412E)          µM      0.0034
4  N#CC(C1CCCCC1)N1CCN(c2ncnc(N)c2-c2ccc(F)cc2)CC1 (stereo not shown)  P70S6K (T412E mutant) (Homo sapiens (Human), UniProt P23443, T412E)          µM         0.2

====

biological target: P70S6K (T412E mutant) (Homo sapiens (Human), UniProt P23443, T412E); test: P70S6K enzyme assay; details: 3 nM P70S6K T412E mutant, 24 μM ATP, 1 μM FITC-AHA-AKRRRLSSLRA-OH substrate peptide, 90 min at 25° C.
Observable: IC50 (nM)

> print(dat)
                                   compound                             target.entity  unit.label  test.value
1  NCC(c1ccc(Cl)cc1)N1CCN(c2ncnc(N)c2-c2ccc(F)cc2)CC1 (centres unmarked) [Example 163]  P70S6K (T412E mutant) (Homo sapiens (Human), UniProt P23443, T412E)          nM         1.3
2  N#CC(c1cccc(C(F)(F)F)c1)N1CCN(c2ncnc(N)c2Br)CC1 (centres unmarked) [Example 166]  P70S6K (T412E mutant) (Homo sapiens (Human), UniProt P23443, T412E)          nM        6100
3  Cn1cc(-c2c(N)ncnc2N2CCC(C(CN)c3ccc(C(F)(F)F)cc3)CC2)cn1 (centres unmarked) [Example 58]  P70S6K (T412E mutant) (Homo sapiens (Human), UniProt P23443, T412E)          nM          31
4  Cn1ccnc1C(c1ccccc1)N1CCN(c2ncnc(N)c2-c2ccc(F)cc2)CC1 (centres unmarked) [Example 30]  P70S6K (T412E mutant) (Homo sapiens (Human), UniProt P23443, T412E)          nM        34.5
5  NC[C@H](c1ccc(C(F)(F)F)cc1)C1CCN(c2ncnc(N)c2-c2ccc(F)cc2)CC1 [Example 53]  P70S6K (T412E mutant) (Homo sapiens (Human), UniProt P23443, T412E)          nM         3.2
6  Nc1ncnc(N2CCC(N)(C(=O)N[C@H](c3ccc(Cl)cc3)C(F)(F)F)CC2)c1Cl [Example 216]  P70S6K (T412E mutant) (Homo sapiens (Human), UniProt P23443, T412E)          nM         820
7  Nc1ncnc(N2CCN(C(CN3CCC3)c3ccc(F)cc3Cl)CC2)c1-c1cn[nH]c1 (centres unmarked) [Example 137]  P70S6K (T412E mutant) (Homo sapiens (Human), UniProt P23443, T412E)          nM        3100
8  Nc1ncnc(N2CCN(C(CN3CCC3)c3ccc(Cl)c(C(F)(F)F)c3)CC2)c1-c1cn[nH]c1 (centres unmarked) [Example 132]  P70S6K (T412E mutant) (Homo sapiens (Human), UniProt P23443, T412E)          nM        1400

====

Overview of recorded IC50 for various molecules
target: P70S6K (T412E mutant) (Homo sapiens (Human), UniProt P23443, T412E); assay: P70S6K enzyme assay; conditions: 3 nM P70S6K T412E mutant, 24 μM ATP, 1 μM FITC-AHA-AKRRRLSSLRA-OH substrate peptide, 90 min at 25° C.
Observable: IC50 (nM)

> print(dat)
                                    molecule  unit.label  bound.type  test.value
 1  Nc1ncnc(N2CCN([C@H](CN3CCC3)c3ccc4c(c3)OCCO4)CC2)c1-c1ccc(F)cc1          nM           =         260
 2  Nc1ncnc(N2CCN(C(CN3CCCC3)c3ccc(F)cc3)CC2)c1Br (centres unmarked)          nM           =         640
 3  N#CC(c1ccc(Cl)c(F)c1)N1CCN(c2ncnc(N)c2-c2ccc(F)cc2)CC1 (centres unmarked)          nM           =          44
 4  CC[C@H](NC(=O)C1(N)CCN(c2ncnc(N)c2C(N)=O)CC1)c1ccc(Cl)cc1          nM           =        2400
 5  N#CC(c1ccc(C(F)(F)F)cc1)N1CCN(c2ncnc(N)c2Br)CC1 (centres unmarked)          nM           >        1000
 6  CCc1c(N)ncnc1N1CCC(N)(C(=O)N[C@@H](CCO)c2ccc(Cl)cc2)CC1          nM           =         450
 7  CCc1c(N)ncnc1N1CCN(C(CN)C2CCCCC2)CC1 (centres unmarked)          nM           >        1000
 8  CN(C)CC(c1ccc(C(F)(F)F)cc1)N1CCN(c2ncnc(N)c2Br)CC1 (centres unmarked)          nM           =          38
 9  Nc1ncnc(N2CCN(C(CN3CCC3)c3ccc(Cl)c(F)c3)CC2)c1-c1cn[nH]c1 (centres unmarked)          nM           =         900
10  Nc1ncnc(N2CCN(C(CN3CCCCC3)c3cccc(C(F)(F)F)c3)CC2)c1Br (centres unmarked)          nM           >        1000
11  Nc1ncnc(N2CCN(C(CN3CCC3)c3ccc(F)c(C(F)(F)F)c3)CC2)c1-c1cn[nH]c1 (centres unmarked)          nM           =        3800
12  N#CC(c1cccnc1)N1CCN(c2ncnc(N)c2-c2ccc(F)cc2)CC1 (centres unmarked)          nM           =         230
13  C[C@H](NC(=O)C1(N)CCN(c2ncnc(N)c2C#N)CC1)c1ccc(Cl)cc1          nM           =         200
14  NC(=O)c1c(N)ncnc1N1CCC(N)(C(=O)N[C@@H](CCO)c2ccc(C(F)(F)F)cc2)CC1          nM           =       41000
15  NCC(c1ccc(C(F)(F)F)cc1)N1CCN(c2ncnc(N)c2OCc2ccccc2)CC1 (centres unmarked)          nM           =          57
16  Nc1ncnc(N2CCC(Cc3ccc(-c4ccc(F)cc4)cc3)CC2)c1-c1ccc(F)cc1          nM           =         450
17  CC[C@H](NC(=O)C1(N)CCN(c2ncnc(N)c2-c2cn[nH]c2)CC1)c1ccc(Cl)cc1          nM           =          78
